Every entry's value here was drawn from patent US20230175066A1.

test system: trifluridine resistant strain of cancer cell strain DLD-1; experiment: IC50 for trifluridine in the trifluridine resistant strain prepared from DLD-1; assay type: cell-based; details: Homo sapiens; DLD-1 after maintenance culture for 6 months or more in the presence of trifluridine (about 10 mg/mL)
assayEndpoint: IC50 (µM)
Give bare numbers, in µM.

// query Which measured IC50 value corresponds to `O=c1[nH]c(=O)n([C@H]2C[C@H](O)[C@@H](CO)O2)cc1C(F)(F)F` ?
// result 300

---

System: DLD-1 cell strain, 5-FU resistant strain, FTD resistant strain
Method: For an original DLD-1 cell strain and each resistant strain (5-FU resistant strain and FTD resistant strain), RNA methylation analysis in accordance with the protocol for RIP sequencing described above and microarray or mRNA expression analysis similar to the qRT-PCR of Example 2-2 was performed. […] The statistical significance of the results was evaluated by pairwise T-TEST using R version 3.4.3 (2017-11-30) on Microsoft Excel® software (Microsoft Campus, Redmond, WA, USA). […]
Consider the following substances; for each one, report its methylation on microRNA, 5-FU resistant strain.
Give bare numbers.

Illustrative cases are given below, each with its answer.
In [3]: df
Out[3]:
                                  substance  recordedmeasurement
0  miR-378d (ACUGGACUUGGAGUCAGAAA; chemistry not fully specified; listed as Homo sapiens)                   30
1  miR-378h (ACUGGACUUGGUGUCAGAUGG; chemistry not fully specified; listed as Homo sapiens)                    0

Each substance below has a recorded value; state its methylation on microRNA, 5-FU resistant strain.
1. miR-3690 (ACCUGGACCCAGCGUAGACAAAG; chemistry not fully specified; listed as Homo sapiens)
2. miR-3131 (UCGAGGACUGGUGGAAGGGCCUU; chemistry not fully specified; listed as Homo sapiens)

// result
[0, 3]
